Origin of the recorded values: ChEMBL document CHEMBL1201862

Test system: K562
Assay: NCI tumour cell line growth inhibition, 48 h
Active and inactive are the calls of the source. Rule as the data show it: active = GI50 up to about 1.1 µM and inactive = higher.
Examples of compounds with documented GI50 follow.
MEASURED_ENDPOINT: GI50

INSERT INTO assay_data (compound, measured_endpoint, result) VALUES
  ('CCCCCCNC(=O)CCC(NC(=O)c1ccc(N(C)Cc2cnc3nc(N)nc(N)c3n2)cc1)C(=O)NCCCCCC (stereo not given)', 'GI50', '2.52 µM (inactive)'),
  ('CC(C)(C)c1cc2c(O)c(c1)COCc1cc(C(C)(C)C)cc(c1O)COCc1cc(C(C)(C)C)cc(c1O)COC2', 'GI50', '> 100 µM (inactive)'),
  ('O=C1CCCCC1CN1CCCC1 (stereo not given)', 'GI50', '> 100 µM (inactive)'),
  ('COc1ccc(Oc2nc3c(N)cc(C(F)(F)F)cc3nc2-c2ccccc2)cc1', 'GI50', '> 100 µM (inactive)'),
  ('O=C1CC(CC(O)C(O)C(O)CO)CC(=O)N1 (stereo not given)', 'GI50', '> 100 µM (inactive)'),
  ('O=C(Nc1ccc(F)cc1)c1cc2ccc(O)cc2o/c1=N\c1ccccc1F', 'GI50', '11.1 µM (inactive)'),
  ('NC1C2C=CC(C2)C1C(=O)O (stereo not given)', 'GI50', '> 100 µM (inactive)'),
  ('N#Cc1c(-c2ccc(Cl)cc2)c2c(n(C3OC(CO)C(O)C(O)C3O)c1=S)CCCC2 (stereo not given)', 'GI50', '37.8 µM (inactive)'),
  ('CCOC(=O)/C(C(=S)NCc1ccccc1)=C(/N)N1CCCC1', 'GI50', '> 100 µM (inactive)'),
  ('O=C(O)C(F)(OC(F)(F)C(F)(F)C(F)(F)F)C(F)(F)F (stereo not given)', 'GI50', '> 100 µM (inactive)');
